Below, each of the compounds is paired with its reported T/C value.
tested on: L1210 leukemia ip in BDF1 mice, survival T/C; assay: NCI In Vivo Anticancer Drug Screen. Data for tumor model L1210 Leukemia (intraperitoneal) in B6D2F1 (BDF1) mice; conditions: endpoint: mean survival time; dose: 400.0 mg/kg/injection; schedule: Q01DX001 (ip); vehicle: saline; higher = longer survival
Inconclusive results and toxic doses are left out.

Sample records with T/C:
C/C=C\C(O)(C(=O)OC)c1ccccc1 (stereo not drawn) | 92 % of control
O=C(O)C1OC(n2cc(F)c(=O)[nH]c2=O)CC1O (stereo not drawn) | 110 % of control

T/C for CCC(=O)Cc1ccc2[nH]c(C)cc(=O)c2c1 ?
88 % of control

----------
test system: L1210 leukemia ip in BDF1 mice, survival T/C; test: NCI In Vivo Anticancer Drug Screen. Data for tumor model L1210 Leukemia (intraperitoneal) in B6D2F1 (BDF1) mice; settings: endpoint: mean survival time; dose: 100.0 mg/kg/injection; schedule: Q01DX001 (ip); vehicle: Klucel (hydroxypropylcellulose) (HPC); higher = longer survival
Toxic doses and inconclusive results are not listed. Square brackets hold non-standard residues; d marks the D form. Peptide text beside a SMILES is read from it. * marks the point of attachment. ξ: configuration not given here. Octanoyl = CCCCCCCC(=O)*; ξP = O=C(O)C1CCCN1
quantity: T/C

Sample records with T/C:
CCN(CC)S(=O)(=O)/C=C\c1ccccc1 | 98 % of control
O=NC1C(Cl)C2CC1C1C(Br)C(Br)CC21 (stereo unspecified) | 92 % of control
CCCCCCCC(=O)N1CCCC1C(=O)NCC(=O)NCC(=O)O (stereo not drawn) (Octanoyl-[ξP]-Gly-Gly-OH) | 115 % of control
CN1CCC/C1=N\c1nn[nH]n1 | 106 % of control
NC(=O)c1ccccc1NC(=O)CCCOc1ccccc1 | 100 % of control

// next entry
T/C for CCCCCCCCCCCCC(CCCCCCCCCCCC)c1ccccc1 ?
112 % of control

----------
system: L1210 leukemia ip in BDF1 mice, survival T/C; assay: NCI In Vivo Anticancer Drug Screen. Data for tumor model L1210 Leukemia (intraperitoneal) in B6D2F1 (BDF1) mice; settings: endpoint: mean survival time; dose: 75.0 mg/kg/injection; schedule: Q01DX001 (ip); vehicle: other; higher = longer survival
Toxic doses and inconclusive results are not listed.
quantity: T/C

O=C1CCCC(c2ccccc2)C1 (stereo not drawn) | 95 % of control
CCOC(=O)c1ccc(NCC(=O)CNc2nc(N)nc(N)c2[N+](=O)[O-])cc1 | 95 % of control

// next entry
T/C for C[N+]1(C)C2CC(OC(=O)C(CO)c3ccccc3)CC1C1OC12 (stereo not drawn) ?
106 % of control

----------
tested on: L1210 leukemia ip in BDF1 mice, survival T/C; assay: NCI In Vivo Anticancer Drug Screen. Data for tumor model L1210 Leukemia (intraperitoneal) in B6D2F1 (BDF1) mice; settings: endpoint: mean survival time; dose: 200.0 mg/kg/injection; schedule: Q01DX001 (ip); vehicle: saline
Inconclusive results and toxic doses are left out. Cut-off read from the data, not from the text of the source: active = T/C of 150% or more; inactive = T/C below 125%.
Response enum: label 1 (active), label 0 (inactive)

Look over these answered cases.
CC1OCCCCO1 | label 0
CC(C)Nc1nc(N)nc2nc(-c3ccc(Cl)cc3)c(-c3ccc(Cl)cc3)nc12 | label 0
Clc1ccc(/C=N/Nc2c3ccccc3nc3ccccc23)c(Cl)c1 | label 0
O=[N+]([O-])c1c(Cl)nc2ccccn12 | label 0
CC(=O)Oc1ccc(OC(C)=O)c2c1C1C=CC2C1 | label 0

Fill in: this test's call for C/C(=C1/SC(=S)NC1=O)c1ccccc1O is ___
label 0

Fill in: this test's call for S=c1nc[nH]c2c1ncn2C1CCCCO1 (stereo unspecified) is ___
label 1

Fill in: this test's call for CC(C)(C)C(O)(C(=O)O)C(C)(C)C is ___
label 0

Fill in: this test's call for O=C1NC(=O)C(c2ccccc2)(c2ccsc2)N1 (stereo unspecified) is ___
label 0

Fill in: this test's call for CC1(c2ccccc2)CC(c2ccccc2)=C(C#N)C(=O)N1 (stereo unspecified) is ___
label 0

Fill in: this test's call for COc1ccc(NC(=O)OCCN(CCOC(=O)Nc2ccc(OC)cc2)c2cccc(C)c2)cc1 is ___
label 0

----------
Below, each of the compounds is paired with its reported T/C value.
test system: L1210 leukemia ip in BDF1 mice, survival T/C; experiment: NCI In Vivo Anticancer Drug Screen. Data for tumor model L1210 Leukemia (intraperitoneal) in B6D2F1 (BDF1) mice; conditions: endpoint: mean survival time; dose: 200.0 mg/kg/injection; schedule: Q01DX009 (ip); vehicle: Klucel (hydroxypropylcellulose) (HPC); higher = longer survival
Inconclusive results and toxic doses are left out.

Sample records with T/C:
CCOC(=O)C(/C=N/C(N)=O)=C(\C)O | 95 % of control
CCc1c(C=O)[nH]c(=S)n(C)c1=O | 88 % of control
O=C1NC(=O)C2(CCc3ccccc32)N1 (stereo not drawn) | 98 % of control
S=c1nc[nH]c2ccccc12 | 95 % of control

T/C for CCOC(=O)c1ccc(NS(C)(=O)=O)cc1 ?
95 % of control

T/C for CCOC(=O)c1ccc(NC(=O)Oc2ccc(C=O)cc2OC)cc1 ?
101 % of control

T/C for CCc1c[n+]([O-])c(C)cc1C(=O)O ?
92 % of control

T/C for CCCCCCNC(=O)c1ccc(C(=O)NCCCCCC)cc1 ?
102 % of control

----------
Below, each of the compounds is paired with its reported T/C value.
tested on: L1210 leukemia ip in BDF1 mice, survival T/C; assay: NCI In Vivo Anticancer Drug Screen. Data for tumor model L1210 Leukemia (intraperitoneal) in B6D2F1 (BDF1) mice; details: endpoint: mean survival time; dose: 200.0 mg/kg/injection; schedule: Q04DX002 (ip); vehicle: Klucel (hydroxypropylcellulose) (HPC); higher = longer survival
Inconclusive results and toxic doses are left out.

CN1C(c2ccccc2)=CN(Cc2ccccc2)C=C1c1ccccc1 | 97 % of control

T/C for Cc1ccc(Oc2ccc3c(c2)CN(C)CC3)cc1 ?
102 % of control

T/C for CN(Cc1cccc(Cl)c1)C(=O)NC(C)(C)C ?
96 % of control

T/C for O=C(O)COc1cc(Cl)ccc1Cl ?
95 % of control

T/C for C=C(C)COc1ccccc1 ?
100 % of control

T/C for COc1ccc(NC(=O)N(C)Cc2ccccc2Cl)cc1 ?
110 % of control

----------
Below, each of the compounds is paired with its reported T/C value.
tested on: L1210 leukemia ip in BDF1 mice, survival T/C; assay: NCI In Vivo Anticancer Drug Screen. Data for tumor model L1210 Leukemia (intraperitoneal) in B6D2F1 (BDF1) mice; details: endpoint: mean survival time; dose: 200.0 mg/kg/injection; schedule: Q01DX001 (ip); vehicle: saline; higher = longer survival
Toxic doses and inconclusive results are not listed.

Sample records with T/C:
Cc1ccc2[nH]c3c(c2c1)CCCC3 | 107 % of control
Nc1nc(Nc2ccc(NC=O)cc2)c(NC=O)c(=O)[nH]1 | 86 % of control
CCCC(=O)OCc1cnc(SC)nc1N | 97 % of control
COc1ccc(N(C)CC(O)CN)cc1 (configuration not stated) | 104 % of control
ClC1(Cl)C2CCCCC21N1CCCCC1 (configuration not stated) | 98 % of control

T/C for Nc1[nH]c(=O)[nH]c(=O)c1N=Nc1ccc(S(=O)(=O)Nc2ccccn2)cc1 ?
96 % of control

T/C for Cc1cc(N(CCCl)CCCl)ccc1C=Nc1ccccc1C(=O)O ?
103 % of control

----------
test system: L1210 leukemia ip in BDF1 mice, survival T/C; assay: NCI In Vivo Anticancer Drug Screen. Data for tumor model L1210 Leukemia (intraperitoneal) in B6D2F1 (BDF1) mice; conditions: endpoint: mean survival time; dose: 400.0 mg/kg/injection; schedule: Q04DX003 (ip); vehicle: saline with Tween-80; higher = longer survival
Inconclusive results and toxic doses are left out.
quantity: T/C

Sample records with T/C:
C=CCc1ccc(OC(=O)Nc2cc(Cl)ccc2C)c(OC)c1 | 101 % of control
CSCCSc1ncnc2nc[nH]c12 | 101 % of control

T/C for Cc1ccc(COC(=O)Nc2ccc(Cl)c([N+](=O)[O-])c2)cc1 ?
100 % of control

T/C for COc1cc(OC)c2c(=O)c3ccccc3[nH]c2c1 ?
88 % of control

T/C for CCCCCCCCCCNc1ccc(Cl)nn1 ?
90 % of control

T/C for Cc1ccc(NS(=O)(=O)c2ccc3ccccc3c2)c(C)c1 ?
89 % of control

T/C for O/N=C(\CC(O)(C(F)(F)F)C(F)(F)F)c1cccs1 ?
95 % of control

T/C for CC1=CCCCC1Oc1ccccc1 (stereo not drawn) ?
109 % of control

T/C for CCc1ccc(C(=O)C2CC2)cc1 ?
96 % of control

T/C for Cc1cc(OS(C)(=O)=O)ccc1OS(C)(=O)=O ?
98 % of control

T/C for CC(=O)N(C)c1ccc(C)cc1C ?
93 % of control

T/C for Cc1ccc(S(=O)(=O)Nc2cccc(C(=O)O)c2)cc1 ?
98 % of control

T/C for CCN(CC)c1cc2c(cc1Br)-c1ccccc1C2=O ?
106 % of control

T/C for Nc1cc(=O)[nH]c(O)c1C(=O)O ?
94 % of control

T/C for CCCC(F)C(=O)OCC (stereo not drawn) ?
106 % of control

T/C for c1ccc(C(c2cccc3ccccc23)N2CCCCC2)cc1 (stereo not drawn) ?
102 % of control

T/C for CCC1(C)N=C(C)C(C)S1 (stereo not drawn) ?
100 % of control

T/C for FC(F)C(F)(F)C(F)(F)C(F)(F)C(F)(F)C(F)(F)COc1nc(OCC(F)(F)C(F)(F)C(F)(F)C(F)(F)C(F)(F)C(F)F)nc(OCC(F)(F)C(F)(F)C(F)(F)C(F)(F)C(F)(F)C(F)F)n1 ?
87 % of control
